Test: MRP1 drug-resistance reversers in H69AR cells – cell-based, doxorubicin co-treatment, pilot screen (AID 601)
Details: H69AR cells + 2 uM doxorubicin, CellTiter-Glo, 72 h; measured here: viability with 2 uM doxorubicin; at 10 µM; stronger effect = lower value
Doc: threshold 90% (exclusive). Items with viability beneath it return MET; others return NOT MET.

1. COC(=O)c1ccc2c(c1)C(=O)N(C1CCCCC1)C2=O NOT MET

Exercise: Does the reported viability of Cc1cc(NCCCn2ccnc2)n2c(nc3ccccc32)c1C#N stay below 90%?
Key: NOT MET

Exercise: Does the reported viability of OCCNc1ncnc2c1c(-c1ccccc1)c(-c1ccccc1)n2Cc1ccco1 stay below 90%?
Key: MET

Exercise: Does the reported viability of CCNc1nc(NC(C)C)nc(N(C#N)CCOc2ccc(Cl)cc2Cl)n1 stay below 90%?
Key: MET

Exercise: Does the reported viability of COCCCNC(=O)c1c(N)n(-c2cccc(S(N)(=O)=O)c2)c2nc3ccccc3nc12 stay below 90%?
Key: MET

---

Test: S. cerevisiae growth inhibition in restrictive medium, OD615, pilot screen, restrictive growth control, yeast lifespan reduction project (AID 706);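 further: modified DeaD lifespan yeast strain shifted to restrictive glucose medium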
Conditions: OD615, 48 h, at 10 µM, stronger effect = higher value
readout.type: growth inhibition (%)
# value in %; strip the unit string

Consider the worked cases shown below.
compound	growth inhibition (%)
COc1cc(/C=C/C2=NC(=O)C(C)(C)O2)ccc1O	6.79
CCOc1ccc(NC(=O)C2CSC(c3ccncc3)=N2)cc1 (stereo unspecified)	29.4
C=CCn1c(SCc2cc(=O)n3ccsc3n2)nc2scc(C3CC3)c2c1=O	-5.57

Exercise: For the compound shown here, CCOC(=O)C1CCN(C(=O)Nc2ccc(Cl)cc2)CC1 , give the reported growth inhibition.
Key: -13.1

Exercise: For the compound shown here, COc1ccc(-c2nc(CS(=O)CC(=O)NCc3ccc4c(c3)OCO4)c(C)o2)cc1 (stereo unspecified) , give the reported growth inhibition.
Key: 14.1

Exercise: For the compound shown here, C(#Cc1ccccc1)CN1CCN(c2ccccn2)CC1 , give the reported growth inhibition.
Key: -2.65

---

Listing of entries alongside the reported growth inhibition.
Experiment: S. cerevisiae growth inhibition in permissive medium (OD615), pilot counter-assay for S. cerevisiae lifespan shortening project, permissive growth control (AID 705)
Conditions: OD615, 24 h, at 10 µM, stronger effect = higher value
# value in %; strip the unit string

molecule	readout.type	result
CCN1CCN(CC(=O)Nc2ccc(Cl)c(Cl)c2)C(=O)C1=O	growth inhibition	3.48
O=c1c2ccccc2nc(N2CCN(c3ccccc3)CC2)n1Cc1ccccc1	growth inhibition	-18.7
COc1cc(C2CC(=O)c3c([nH]c(C(=O)OCCOC(C)C)c3C)C2)cc(OC)c1OC (configuration not stated)	growth inhibition	-15.2
COc1cc(/C=C/C2=NC(=O)C(C)(C)O2)ccc1O	growth inhibition	-1.35
O=C(NCc1ccc2c(c1)OCO2)c1nnc(Cc2ccc(F)cc2)o1	growth inhibition	-1.76
C(=C\c1ccccc1)/CN1CCN(c2ncnc3c2oc2ccccc23)CC1	growth inhibition	-2.64

Exercise: For the molecule shown here, COc1ccc(OC)c2c1sc(=NC(=O)c1ccco1)n2C , give the reported growth inhibition.
Key: -3.52

Exercise: For the molecule shown here, COc1cc(Cl)c(S(=O)(=O)N2CCN(Cc3ccc4c(c3)OCO4)CC2)cc1Cl , give the reported growth inhibition.
Key: -9.75

---

Listing of entries alongside the reported viability.
Assay: H69AR cell proliferation blockers – human, duplicate replicates, primary screen (AID 580);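 further: 100% = mean luminescence of untreated wells and 0% = no signal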
Conditions: H69AR lung tumor cells viability, ATP luminescence, 72 h; at 10 µM; stronger effect = lower value
# value in %; strip the unit string

Consider the worked cases shown below.
compound	readout.type	result
Cc1ccc(C)c(SCC(=O)Nc2nnc(-c3ccccc3)o2)c1	viability	74.9
Cc1ccc(NC(=O)C2CCCNC2=O)nc1 (stereo unspecified)	viability	97.8

Exercise: For the compound shown here, O=C(Nc1ccc2c(c1)C(=O)N(C1CCCCC1)C2=O)C1CCCO1 (stereo unspecified) , give the reported viability.
Key: 90.9

Exercise: For the compound shown here, CCCCCCNC(=O)c1c(N)n(/N=C/c2ccco2)c2nc3ccccc3nc12 , give the reported viability.
Key: 78.4

Exercise: For the compound shown here, CN(C)S(=O)(=O)Nc1ccccc1C(N)=O , give the reported viability.
Key: 98.4

---

Listing of entries alongside the reported viability increase.
Test: doxorubicin toxicity protection in MRP-1 cells – H69AR cells, CellTiter-Glo, duplicate, MRP-1 activator project, pilot screen (AID 807);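 further: compound pretreatment 18-22 h then 72 h combined with doxorubicin; 0% = doxorubicin alone and 100% = vehicle without doxorubicin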
Settings: H69AR viability with doxorubicin, CellTiter-Glo luminescence; at 10 µM; stronger effect = higher value
# value in %; strip the unit string

compound	unit.spec	viability increase
COC(=O)c1c(NC(=O)C2CC2)sc2c1CCCC2	%	-4.82
COC(=O)c1ccc(C)c(NC(=O)CN(c2cc(OC)ccc2OC)S(C)(=O)=O)c1	%	-3.03
CCOC(=O)C1CCN(C(=O)Nc2ccc(Cl)cc2)CC1	%	1.32
Brc1ccccc1-c1nnc(CSc2nnc3sc4ccccc4n23)o1	%	-3.18
CCn1c(C(C)NC(=O)c2cccc(C)c2)nc2ccccc21 (stereo not drawn)	%	-2.68

Exercise: For the compound shown here, CCCc1nnc(NC(=O)c2ccncc2)s1 , give the reported viability increase.
Key: 0.44

Exercise: For the compound shown here, CN1CSC2=C(C#N)C(c3cccc(OCc4ccccc4)c3)CC(=O)N2C1 (stereo not drawn) , give the reported viability increase.
Key: -4.67

Exercise: For the compound shown here, CCOC(=O)c1cc2c(=O)n3ccccc3nc2n(Cc2ccco2)c1=NC(=O)c1cccnc1 , give the reported viability increase.
Key: 3.61

Exercise: For the compound shown here, Cn1cccc1Cc1nnc(SCC(=O)Nc2ccc3c(c2)OCCO3)n1CCc1ccccc1 , give the reported viability increase.
Key: -1.87

Exercise: For the compound shown here, COc1cccc(CSc2nc3sc(C)c(C)c3c(=O)n2Cc2ccco2)c1 , give the reported viability increase.
Key: 0.35

Exercise: For the compound shown here, CCN(CC)S(=O)(=O)c1cc(-c2nnc(-c3ccc(Br)cc3)o2)ccc1Cl , give the reported viability increase.
Key: 1.36

Exercise: For the compound shown here, C=CCn1c(SCc2cc(=O)n3ccsc3n2)nc2scc(C3CC3)c2c1=O , give the reported viability increase.
Key: -3.7

Exercise: For the compound shown here, CCOC(=O)CSc1nc2c(c(=O)n(C)c(=O)n2C)n1Cc1ccccc1F , give the reported viability increase.
Key: 0.38

---

Assay: H69AR cell proliferation blockers – human, duplicate replicates, primary screen (AID 580);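 further: 100% = mean luminescence of untreated wells and 0% = no signal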
Details: H69AR lung tumor cells viability, ATP luminescence, 72 h; at 10 µM; stronger effect = lower value
readout.type: viability (%)
# value in %; strip the unit string

Consider the worked cases shown below.
compound	result
Cc1ccc(S(=O)(=O)N(C)CC(=O)NC2CCCC2)cc1	102
CC(=O)c1ccc(NC(=O)CSc2nnc(-c3ccoc3C)n2Cc2ccccc2)cc1	93.5
COc1ccccc1NS(=O)(=O)c1ccc(NC(=O)c2nc3ncccn3n2)cc1	96.3
O=C(NCc1nc2ccccc2[nH]1)c1ccco1	90.7
CCC(=O)n1nc(-c2ccco2)nc1N	110
O=S(=O)(c1ccccc1)N1CCSC1c1ccco1 (stereo not given)	72.2

Exercise: For the compound shown here, c1ccc2[nH]c(CSc3nnc(-c4ccncc4)o3)nc2c1 , give the reported viability.
Key: 90.9

Exercise: For the compound shown here, Cc1nc2cc(NC(=O)N3CC4(C)CC3CC(C)(C)C4)ccc2n1C (stereo not given) , give the reported viability.
Key: 89.7

Exercise: For the compound shown here, CCc1c(C(=O)Nc2cc(C)ccc2OC)[nH]c(C)c1C(C)=O , give the reported viability.
Key: 82

Exercise: For the compound shown here, O=C(COC(=O)c1ccc(NS(=O)(=O)c2ccc3c(c2)OCCO3)cc1)NCC1CCCO1 (stereo not given) , give the reported viability.
Key: 107

---

Experiment: S. cerevisiae growth inhibition in restrictive medium, OD615, pilot screen, restrictive growth control, yeast lifespan reduction project (AID 706);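 further: modified DeaD lifespan yeast strain shifted to restrictive glucose medium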
Conditions: OD615, 48 h, at 10 µM, stronger effect = higher value
Listing of entries alongside the reported growth inhibition.
# value in %; strip the unit string

compound	growth inhibition / %
Cc1cc(NC(=O)c2noc3c2CCc2ccccc2-3)n(-c2ccccc2)n1	-2.05

Exercise: For the compound shown here, CCOC(=O)C1=C(N)OC2=C(C(=O)CC(C)(C)C2)C1C1CCCCC1 (centres undefined) , give the reported growth inhibition.
Key: -4.08

Exercise: For the compound shown here, CCOC(=O)c1ccc(NC(=O)c2ccc(C)c(S(=O)(=O)N3CCOCC3)c2)cc1 , give the reported growth inhibition.
Key: -5.64

Exercise: For the compound shown here, CN(C)c1ccc(-c2noc(C3CCN(S(=O)(=O)c4cccc(Cl)c4)CC3)n2)cc1 , give the reported growth inhibition.
Key: -11.7

Exercise: For the compound shown here, O=C(O)CC1C(=O)NCCN1C/C=C/c1ccccc1 (centres undefined) , give the reported growth inhibition.
Key: -16.1

Exercise: For the compound shown here, COC(=O)CNc1c(-c2ccccn2)nc2ccc(Br)cn12 , give the reported growth inhibition.
Key: 10.8

Exercise: For the compound shown here, CCNC(=O)CCn1nc(-c2ccc(Cl)cc2)c2ccccc2c1=O , give the reported growth inhibition.
Key: -10.1

Exercise: For the compound shown here, COc1ccc(OC)c2c1sc(=NC(=O)c1ccco1)n2C , give the reported growth inhibition.
Key: 4.96

Exercise: For the compound shown here, CN1CSC2=C(C#N)C(c3cccc(OCc4ccccc4)c3)CC(=O)N2C1 (centres undefined) , give the reported growth inhibition.
Key: 20.4

Exercise: For the compound shown here, COc1cccc(CSc2nc3sc(C)c(C)c3c(=O)n2Cc2ccco2)c1 , give the reported growth inhibition.
Key: 2.66

Exercise: For the compound shown here, Cc1cccc(N2CCN(C(=O)c3cc4c(C)nc5ccccc5c4o3)CC2)c1C , give the reported growth inhibition.
Key: -1.81

Exercise: For the compound shown here, COc1ccc2cc(CCNC(=O)c3ccc(Br)o3)c(=O)[nH]c2c1 , give the reported growth inhibition.
Key: -17

Exercise: For the compound shown here, CC(C)n1c(C(=O)OCC(=O)NCc2ccc3c(c2)OCO3)cc2sccc21 , give the reported growth inhibition.
Key: -12.8

Exercise: For the compound shown here, Cc1noc(/C=C/N(C)C)c1S(=O)(=O)N1CCCC(C(=O)NCc2ccc(F)cc2)C1 (centres undefined) , give the reported growth inhibition.
Key: -8.86

Exercise: For the compound shown here, O=C(NCc1ccc2c(c1)OCO2)c1nnc(Cc2ccc(F)cc2)o1 , give the reported growth inhibition.
Key: 9.91

Exercise: For the compound shown here, O=C1C2CCCN2C(c2ccc(F)cc2)N1c1ccc(Cl)cc1 (centres undefined) , give the reported growth inhibition.
Key: -0.82

Exercise: For the compound shown here, C1=C(c2ccccc2)CCN(c2nc3ccccc3n3cnnc23)C1 , give the reported growth inhibition.
Key: 11.2

Exercise: For the compound shown here, COc1ccc(OC)c(NC(=O)CN(c2ccc(C(C)C)cc2)S(=O)(=O)c2c(C)noc2C)c1 , give the reported growth inhibition.
Key: -12.1

Exercise: For the compound shown here, O=c1c2ccccc2nc(N2CCN(c3ccccc3)CC2)n1Cc1ccccc1 , give the reported growth inhibition.
Key: -8.96

Exercise: For the compound shown here, Cn1c(SCc2ccccc2Cl)nnc1-c1cnccn1 , give the reported growth inhibition.
Key: -7.88

Exercise: For the compound shown here, C=CCSc1nnc2c(n1)OC=Nc1ccccc1-2 , give the reported growth inhibition.
Key: 29.7

Exercise: For the compound shown here, CCOc1ccc(CN2CCNC(=O)C2CC(=O)OC)cc1 (centres undefined) , give the reported growth inhibition.
Key: -7.59

Origin of measurements: PubChem BioAssay
